# ASSAY METHOD TEXT: Cell Viability - LYMP2-014 (AID 983);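 also: cells exposed to compound for 24 h at 37 °C; plate controls were DMSO only for no effect and 92 µM tetraoctylammonium bromide for full effect; nearly all actives have a fitted effect of over 50% in size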
# CONDITION PARAMETERS: LYMP2-014 lymphoblastoid cells, viability qHTS; series mostly up to 92.2 µM
Inconclusive results are not listed. The source made the active and inactive calls. Calls follow the shape of the dose curve; as a rule, active = well fitted cell-killing curve with a large enough effect; inconclusive = small, poorly fitted or top-dose-only effect; inactive = flat fitted curve, though single readings scatter.
Use one of these outcomes when replying: yes = active, no = inactive

These recorded examples may help you get a feel for the data.
compound=Oc1c(Cl)ccc(Cl)c1Cl discrete_label=no
compound=NS(=O)(=O)O discrete_label=no
compound=CCCCCCC=O discrete_label=no
compound=Cc1ccc2oc(=O)ccc2c1 discrete_label=no
compound=CC/C=C/C#N discrete_label=no
compound=C=C(C)OC(C)=O discrete_label=no

Assay outcome for O=Cc1ccc(CO)o1 : what was it?
no

Status in this test for C=CCCCCCC ?
no

Recorded test outcome, item CCN(Cc1ccccc1)c1ccccc1
no

Answer briefly: the call reported for C/C=C1\CC2C=CC1C2 (stereo not given) in this assay.
no

Status in this test for Oc1cccc(Nc2ccccc2)c1 ?
no

Lab log entry: CN(C)c1cccc(O)c1 — outcome as called in the assay?
no

---

In this section, each of the compounds is paired with its reported caspase-3 activation.
# ASSAY METHOD TEXT: Cellular Toxicity (caspase-3) Jurkat (AID 655);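 also: cells exposed to compound for 16 h at 37 °C before reading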
# CONDITION PARAMETERS: Jurkat caspase-3 activation, luminescence; at 92.2 µM (top of the series), DMSO = 0%, tamoxifen = 100%
Inconclusive results are not listed.
Respond numerically; units are % and should not be typed.

compound=CC(C)N=C=NC(C)C observed_measurement=2.33
compound=CC/C(C)=N/O observed_measurement=-0.144
compound=Cc1ccc(C)o1 observed_measurement=1.7
compound=CCOc1ccccc1N observed_measurement=0.926
compound="CCC(C)O (centres undefined)" observed_measurement=0.184

// caspase-3 activation lookup, key: CCCCCCCCC
0.991

Record request: caspase-3 activation value, item c1ccsc1
0.61

Recorded caspase-3 activation for O=Cc1ccc(Cl)cc1 , please?
-1.13

---

# ASSAY METHOD TEXT: qHTS assay for small molecule antagonists of retinoid X receptor alpha signaling (AID 588546);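 also: cells stimulated with 9-cis-retinoic acid as agonist; % is scaled to controls: 0 for no effect and ±100 for the full control effect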
# CONDITION PARAMETERS: HEK293T RXRa-UAS-bla, beta-lactamase ratio, antagonist mode; measured here: W530 green channel, cytotoxicity proxy
Records with an inconclusive call do not appear.
VALUE KIND: max response

// solved cases for max response follow
compound=Cc1ccc(C)c(N)c1 observed_measurement=-10.5%
compound=CC(=O)Nc1ccccc1C observed_measurement=-11.2%
compound=O=Cc1cccc(Br)c1 observed_measurement=0.346%
compound="CCCOCC(C)OCC(C)O (stereo not given)" observed_measurement=-4.87%
compound=CCCCCCC=O observed_measurement=9.36%

Field request: max response | item: Cc1ccccc1C=O
9.24%

Could you share which max response value was measured for CC(C)=CCl ?
-7.86%

Given the entry CC(C)Cc1nccs1 , report its measured max response.
-5.6%

Item Cc1cccc(Br)c1 has what recorded max response?
-8.74%

Entry CCCCC(CC)CNCC(CC)CCCC (stereo not given) has what max response?
0.349%

# get_value(readout='max response', item= Cc1ccc(C#N)cc1 )
-3.82%

Entry CCCCCCC(=O)O : reported max response = ?
-1.09%

Item Cc1cccc2sc(N)nc12 has what recorded max response?
-5.71%

Fill blank: measured max response of the compound Nc1ccccc1S(=O)(=O)O is ____.
-2.85%

max response for Cc1ccc(Cl)cc1 ?
-3.57%

Request the reported max response associated with CCOCCOCC
-9.02%
